System: anti-Fy^b monoclonal antibody (LM447)
Test: SPOTs membrane hybridisation with anti-Fy^b antibody
Format: binding, Murine
Details: FIG. 2; 20 Fyb peptides in duplicate; CPep75 (Spot 21) positive control; 2 μg/ml primary antibody; chemiluminescence
ASSAY_READOUT: SPOTs binding of anti-Fy^b antibody LM447 to membrane-synthesised peptide

Worked examples, 5 sequences total:
MVQELPFVLRSK [Fyb11] ... failed to react
TFQYLDPPPFTP [Fyb13] ... successfully bound
MFQPTHWGTRLS [Fyb9] ... failed to react
MFQEHTPAFGGL [Fyb7] ... failed to react
TFQPRSWPNIDL [Fyb12] ... successfully bound

Shifting focus to the sequence that follows.
Summary for this sequence, MYQDTPPPRKNV [Fyb1] : SPOTs binding of anti-Fy^b antibody LM447 to membrane-synthesised peptide is failed to react
